Source: PubChem BioAssay (NCI)

Quick reference for TGI among some molecules
- Tested on: RPMI-8226 leukemia
- assayName: NCI tumour cell line growth inhibition, 48 h

{"molecule": "Cc1nc(-c2cc3c(ccc4ccccc43)oc2=O)cs1", "TGI": "> 100 µM"}
{"molecule": "COC(=O)/C=C(/C=C1/C(C#N)=C(N)N(c2ccc(Cl)cc2)C1(C)/C(=C/C(=O)OC)C(=O)OC)C(=O)OC (stereo not drawn)", "TGI": "> 100 µM"}
{"molecule": "Nc1c(-c2ccc(Cl)cc2)[n+]([O-])c2ccccc2[n+]1[O-]", "TGI": "> 100 µM"}

---

TGI reference
- Test system: UACC-257 melanoma
- assayName: NCI tumour cell line growth inhibition, 48 h

{"compound": "COc1cc(/C=C2/SC(c3ccccc3)N(c3ccccc3Cl)C2=O)cc(OC)c1OC (stereo unspecified)", "TGI": "> 100 µM"}
{"compound": "O=S(=O)(SC1=NCCN1)c1ccc2ccccc2c1", "TGI": "> 100 µM"}
{"compound": "O=S(=O)(NC1=NCCN1C(=S)SN1CCn2c1nsc2=S)c1cccc(Cl)c1", "TGI": "39.5 µM"}
{"compound": "CCC/C=C/c1cc2c(cc1O)CC[C@@H]1[C@@H]2CC[C@]2(C)[C@@H](O)CC[C@@H]12", "TGI": "30.8 µM"}
{"compound": "CC(SC(=S)N1CCOCC1)c1cc2oc(=O)n(C)c2cc1Cl (stereo unspecified)", "TGI": "> 100 µM"}
{"compound": "CCOC(=O)c1oc2cc3c(c4c2c1-c1ccccc1N4C)C=CC(C)(C)O3", "TGI": "> 100 µM"}
